Starred links: 1 amine or outer side, 2 acyl side, 3 side chain; linkers in the order of their positions; H or OH if unused. Non-standard residues stand in square brackets, D forms with d. Residues, ends and D or L forms follow the SMILES beside them. Phe(ψ(S)CH(OH)CH2N)Pro = O=C([C@@H]1CCCN1C[C@H](O)[C@H](Cc1ccccc1)N[*:1])[*:2]
A set of compounds tested on Human immunodeficiency virus type 1 protease (Human immunodeficiency virus 1), with measured Ki:
measurementLabel: Ki (nM)

INSERT INTO assay_data (compound, observed) VALUES
  ('CC[C@H](C)[C@H](NC(=O)[C@@H]1CCCN1C[C@H](O)[C@H]1Cc2ccc(cc2)OCC(=O)NCC(=O)N[C@@H](CC(N)=O)C(=O)N1)C(=O)N[C@H](C(N)=O)C(C)C', 11),
  ('CC(C)[C@@H]1NC(=O)CCCCCOc2ccc(cc2)C[C@H]([C@H](O)CN2CCCC[C@H]2C(=O)NC(C)(C)C)NC1=O', 50),
  ('CC(C)(C)NC(=O)[C@@H]1CCCN1C[C@H](O)[C@H]1Cc2ccc(cc2)OCCCC(=O)NC(CC(N)=O)C(=O)N1 (some centres not stated)', 145),
  ('CC[C@H](C)[C@H](NC(=O)[C@@H]1CCCN1C[C@@H](O)[C@@H]1CSSC[C@@H](NC(C)=O)C(=O)NCC(=O)N[C@@H](CC(N)=O)C(=O)N1)C(=O)N[C@H](C(N)=O)C(C)C', 36000),
  ('CC[C@H](C)[C@H](NC(=O)[C@@H]1CCCN1C[C@H](O)[C@H](Cc1ccccc1)NC(=O)[C@H](CC(N)=O)NC(=O)[C@H](CC(C)C)NC(C)=O)C(=O)N[C@H](C(N)=O)C(C)C (Ac-LN[Phe(ψ(S)CH(OH)CH2N)Pro]IV-NH2)', 3),
  ('CC[C@H](C)[C@H](NC(=O)[C@@H]1CCCN1C[C@H](O)[C@H]1Cc2ccc(cc2)OCCCC(=O)NC(CC(N)=O)C(=O)N1)C(N)=O (some centres not stated)', 250),
  ('CC(C)(C)NC(=O)[C@@H]1CCCN1C[C@@H](O)[C@H]1Cc2ccc(cc2)OCCCC(=O)NC(CC(N)=O)C(=O)N1 (some centres not stated)', 57),
  ('CC[C@H](C)[C@H](NC(=O)[C@@H]1CCCN1C[C@@H](O)[C@H]1Cc2ccc(cc2)OCC(=O)N[C@@H](Cc2ccc(O)cc2)C(=O)N[C@@H](CC(N)=O)C(=O)N1)C(=O)N[C@H](C(N)=O)C(C)C', 165),
  ('CC[C@H](C)[C@H](NC(=O)[C@@H]1CCCN1C[C@@H](O)[C@H]1Cc2ccc(cc2)OCC(=O)NCC(=O)N[C@@H](CC(N)=O)C(=O)N1)C(=O)N[C@H](C(N)=O)C(C)C', 200),
  ('CC(C)(C)NC(=O)CN(Cc1ccccc1)C[C@H](O)[C@H]1Cc2ccc(cc2)OCCCC(=O)N[C@@H](CC(N)=O)C(=O)N1', 13600),
  ('CC(C)N(C(=O)[C@@H]1CCCN1C[C@H](O)[C@H]1Cc2ccc(cc2)OCCCC(=O)NC(CC(N)=O)C(=O)N1)C(C)C (some centres not stated)', 86000),
  ('CC(C)N(C(=O)[C@@H]1CCCN1C[C@@H](O)[C@H]1Cc2ccc(cc2)OCCCC(=O)NC(CC(N)=O)C(=O)N1)C(C)C (some centres not stated)', 31000);
